molecular target: human c-MER catalytic domain (Homo sapiens (Human), UniProt Q12866); assay: LanthaScreen TR-FRET kinase assay, c-MER; settings: read-out: Mer TK inhibition (IC50); Biochemical IC50, TR-FRET, 10 uM ATP
Sequence (Q12866 587-858): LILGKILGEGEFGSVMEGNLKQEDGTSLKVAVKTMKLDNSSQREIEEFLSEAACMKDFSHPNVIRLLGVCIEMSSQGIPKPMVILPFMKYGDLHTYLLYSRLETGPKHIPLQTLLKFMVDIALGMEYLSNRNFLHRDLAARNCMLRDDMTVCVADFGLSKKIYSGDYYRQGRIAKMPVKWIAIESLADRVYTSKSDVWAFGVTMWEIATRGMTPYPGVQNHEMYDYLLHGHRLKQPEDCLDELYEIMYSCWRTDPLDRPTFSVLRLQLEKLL
endpoint_name: IC50

>>> result("CNC(=O)[C@@H](NC(=O)c1cc(-c2cnn(C)c2)cnc1N)[C@@H](C)OCc1ccccc1 [Example 122]")
"> 1 µM"
>>> result("Cn1cc(-c2cnc(N)c(C(=O)N[C@H]3CCC[C@@H]3OCc3ccc(-c4ccc(CCN)cc4)cc3)c2)cn1 [Example 145]")
"< 0.01 µM"
>>> result("COc1cccc(CO[C@@H](C)CNC(=O)c2cc(-c3cnn(C)c3)cnc2N)c1 [Example 107]")
"> 1 µM"
>>> result("COC(=O)CNC(=O)c1cccc(CO[C@H]2CCC[C@@H]2NC(=O)c2cc(-c3cnn(C)c3)cnc2N)c1 [Example 55]")
"> 1 µM"

###

molecular target: human c-MER catalytic domain (Homo sapiens (Human)); experiment: LanthaScreen TR-FRET kinase assay, c-MER; conditions: read-out: Mer TK inhibition (IC50); Biochemical IC50, TR-FRET, 10 uM ATP
// IC50 lookup, one value per entry
endpoint_name: IC50

>>> result("CC(=O)N[C@@H](C)C(=O)Nc1cccc(CO[C@H]2CCC[C@@H]2NC(=O)c2cc(-c3cnn(C)c3)cnc2N)c1")
"> 1000 nM"
>>> result("Cn1cc(-c2cnc(N)c(C(=O)N[C@H]3CCC[C@@H]3OCc3ccc(C#CCCCO)cc3)c2)cn1")
"< 10 nM"
>>> result("CN1CCN(c2ccc(Nc3ccc(C(=O)N[C@H]4CCC[C@@H]4OCc4ccccc4)c(N)n3)cc2)CC1")
"> 1000 nM"
>>> result("CC(c1ccc(-c2ccc(CO[C@H]3CCC[C@@H]3NC(=O)c3cc(-c4cnn(C)c4)cnc3N)cc2)cc1)N1C[C@@H](C)N(C)[C@@H](C)C1 (stereo partly drawn)")
"< 10 nM"
>>> result("CN1CCN(Cc2ccc(-c3ccc(CO[C@H]4CCC[C@@H]4NC(=O)c4nc(-c5cnn(C)c5)cnc4N)cc3)cc2)CC1")
"< 10 nM"
>>> result("Cn1cc(-c2cnc(N)c(C(=O)N[C@H]3CCC[C@@H]3OCc3ccc(-c4ccc(CN5CCN(CC(C)(C)O)CC5)cc4)cc3)c2)cn1")
"< 10 nM"
>>> result("COc1ccc(CO[C@@H]2CCC[C@H]2NC(=O)c2cc(-c3cnn(C)c3)cnc2N)cc1")
"> 1000 nM"
>>> result("CC(C)[C@@H](COCc1ccccc1)NC(=O)c1cc(-c2cnn(C)c2)cnc1N")
"> 1000 nM"
>>> result("CCc1cc(CO[C@H]2CNC[C@@H]2NC(=O)c2cc(-c3ccncc3)cnc2N)ccc1C")
"< 10 nM"
>>> result("Cn1cc(-c2cnc(N)c(C(=O)N[C@H]3CCC[C@@H]3OCc3cccc(NC(=O)C4CCNCC4)c3)c2)cn1")
"> 1000 nM"
>>> result("Cc1cscc1-c1cnc(N)c(C(=O)N[C@H]2CCC[C@@H]2OCc2ccc(-c3ccc(CN4CCN(C)CC4)cc3)cc2)c1")
"< 10 nM"
>>> result("CN1CCN(Cc2ccc(Nc3ccc(C(=O)N[C@H]4CCC[C@@H]4OCc4ccccc4)c(N)n3)cc2)CC1")
"> 1000 nM"
>>> result("Cn1cc(-c2cnc(N)c(C(=O)NC(C)(C)COCc3ccccc3)c2)cn1")
"> 1000 nM"
>>> result("Cn1cc(-c2cnc(N)c(C(=O)N[C@@H](COCc3ccccc3)C3CCCCC3)c2)cn1")
"> 1000 nM"
>>> result("Cn1cc(-c2cnc(N)c(C(=O)N[C@H]3CCC[C@@H]3OCc3ccc(-c4ccc(N5CCNCC5)nc4)cc3)c2)cn1")
"< 10 nM"
